# Test system: Mouse microglia
# METHOD NOTES: Cell viability (CellTiter-Glo), mouse microglia
# Assay type: cell-based
# CONDITION SET: 50 μM, CellTiter-Glo
# key: entry, value: Cell viability (%) Mouse microglia 50 μM
MEASURED ENDPOINT: Cell viability (%) Mouse microglia 50 μM

[[record]]
compound = "CC1N=C(c2ccccn2)c2cc(Br)ccc2NC1=O (stereo not drawn)"
target_desc = "Mouse microglia"
measured_endpoint = "Cell viability (%) Mouse microglia 50 μM"
obs_value = 88

[[record]]
compound = "C#Cc1ccc2c(c1)C(c1ccccc1F)=N[C@H](C)c1c(-c3nc(C(C)C)no3)ncn1-2"
target_desc = "Mouse microglia"
measured_endpoint = "Cell viability (%) Mouse microglia 50 μM"
obs_value = 91

[[record]]
compound = "C#Cc1ccc2c(c1)C(c1ccccc1F)=NC(C)c1c(C(=O)[O-])ncn1-2.[Na+] (stereo not drawn)"
target_desc = "Mouse microglia"
measured_endpoint = "Cell viability (%) Mouse microglia 50 μM"
obs_value = 89


* * *

# System: HEPG2
# METHOD NOTES: Viability assay (CellTiter-Glo), HEPG2
# Format: cell-based, human
# CONDITION SET: 120 μM, CellTiter-Glo
Cell viability (%) HEPG2 120 μM values by entry
MEASURED ENDPOINT: Cell viability (%) HEPG2 120 μM

[[record]]
molecule = "CCOC(=O)c1ncn2c1[C@@H](C)N=C(c1ccccc1F)c1cc(Cl)ccc1-2"
obs_value = 94

[[record]]
molecule = "C#Cc1ccc2c(c1)C(c1ccccc1F)=N[C@H](C)C(=O)N2"
obs_value = 89

[[record]]
molecule = "CC1N=C(c2ccccn2)c2cc(Br)ccc2NC1=O (stereo not drawn)"
obs_value = 92

[[record]]
molecule = "CC(C)c1noc(-c2ncn3c2[C@@H](C)N=C(c2ccccc2F)c2cc(C4CC4)ccc2-3)n1"
obs_value = 100

[[record]]
molecule = "C[C@H]1N=C(c2ccccc2F)c2cc(C3CC3)ccc2-n2cnc(C(=O)N(C)C)c21"
obs_value = 100

[[record]]
molecule = "CCOC(=O)c1ncn2c1[C@@H](C)N=C(c1ccccc1F)c1cc(C3CC3)ccc1-2"
obs_value = 100

[[record]]
molecule = "C#Cc1ccc2c(c1)C(c1ccccc1F)=N[C@H](C)c1c(-c3nc(C)no3)ncn1-2"
obs_value = 100

[[record]]
molecule = "C[C@H]1N=C(c2ccccc2F)c2cc(Br)ccc2-n2cnc(C(=O)N(C)C)c21"
obs_value = 88

[[record]]
molecule = "C#Cc1ccc2c(c1)C(c1ccccc1F)=N[C@@H](C)C(=O)N2"
obs_value = 100


* * *

Entries and their inhibition at 10 µM values follow.
# TARGET DESC: MOR (μ opioid receptor) (Homo sapiens)
# Construct: expressed in transfected cells; host or cells: HEK293
# Sequence (P35372 whole entry, species assumed): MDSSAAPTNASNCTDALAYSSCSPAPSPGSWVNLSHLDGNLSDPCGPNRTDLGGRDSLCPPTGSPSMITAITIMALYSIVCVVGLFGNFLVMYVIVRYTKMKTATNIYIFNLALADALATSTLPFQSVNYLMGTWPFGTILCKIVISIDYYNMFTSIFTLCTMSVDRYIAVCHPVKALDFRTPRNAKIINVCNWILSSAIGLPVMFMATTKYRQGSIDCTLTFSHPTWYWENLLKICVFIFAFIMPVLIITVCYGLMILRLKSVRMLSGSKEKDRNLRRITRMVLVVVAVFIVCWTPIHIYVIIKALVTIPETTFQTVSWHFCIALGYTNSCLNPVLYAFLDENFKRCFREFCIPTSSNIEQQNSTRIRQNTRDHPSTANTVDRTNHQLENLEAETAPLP
# METHOD NOTES: MOR radioligand binding ([3H]-DAMGO, HEK293 cell homogenates)
# CONDITION SET: Percent inhibition at 10,000 nM; [3H]-DAMGO
MEASURED ENDPOINT: inhibition at 10 µM (%)

[[record]]
compound = "C#Cc1ccc2c(c1)C(c1ccccc1F)=N[C@@H](C)c1c(C(=O)OC3CC3)ncn1-2 [GL-I-38]"
target_desc = "MOR (μ opioid receptor) (Homo sapiens)"
measured_endpoint = "inhibition at 10 µM"
unit_name = "%"
obs_value = 18

[[record]]
compound = "CCOC(=O)c1ncn2c1[C@H](C)N=C(c1ccccc1F)c1cc(C3CC3)ccc1-2 [GL-I-78]"
target_desc = "MOR (μ opioid receptor) (Homo sapiens)"
measured_endpoint = "inhibition at 10 µM"
unit_name = "%"
obs_value = 32

[[record]]
compound = "C[C@@H]1N=C(c2ccccc2F)c2cc(Br)ccc2-n2cnc(-c3cnco3)c21 [GL-III-76]"
target_desc = "MOR (μ opioid receptor) (Homo sapiens)"
measured_endpoint = "inhibition at 10 µM"
unit_name = "%"
obs_value = 3

[[record]]
compound = "C[C@H]1N=C(c2ccccc2F)c2cc(Cl)ccc2-n2cnc(C(=O)O)c21 [GL-III-54]"
target_desc = "MOR (μ opioid receptor) (Homo sapiens)"
measured_endpoint = "inhibition at 10 µM"
unit_name = "%"
obs_value = 0

[[record]]
compound = "C#Cc1ccc2c(c1)C(c1ccccc1F)=N[C@H](C)c1c(C(=O)O)ncn1-2 [SH-053-2'F-R-CH3-Acid]"
target_desc = "MOR (μ opioid receptor) (Homo sapiens)"
measured_endpoint = "inhibition at 10 µM"
unit_name = "%"
obs_value = 0


Reference for the values: patent US20240279232A1
